# target system: acid ceramidase (Homo sapiens)
# Construct: Cell lysates overexpressing acid ceramidase were used as the enzyme source; expressed in transfected cells
# assay overview: Acid ceramidase inhibition, biochemical fluorescent assay with cell lysates overexpressing acid ceramidase, substrate Rbm14-12
# assay conditions: substrate Rbm14-12 6.3 μM, pH 4.5
result type: IC50

Query: IC50; subject: CCCN1CCN(c2cccc3c2ncn3C(=O)NCCC(C)C)CC1
200 to 1000 nM

Query: IC50; subject: CC(C)CCNC(=O)n1cnc2c(N3CC4CCC(C3)N4C)cccc21
200 to 1000 nM

Query: IC50; subject: CCN1CCN(c2cccc3c2ncn3C(=O)NCCC2CCC(F)(F)C2)CC1 (stereo not shown)
200 to 1000 nM

Query: IC50; subject: CN1CCN(c2cccc3c2ncn3C(=O)NCCCc2ccccc2)CC12CC2
< 200 nM

Query: IC50; subject: CN1CCN(c2cccc3c2ncn3C(=O)NCC#CCC2CC2)CC1
< 200 nM

* * *

# assay overview: Compound solubility in water
result type: solubility (µg/mL)

compound: COc1nc2cc(-c3cncnc3)ccc2n1C(=O)NC1CCCCC1 [Example 111b]
result type: solubility
unit string: µg/mL
readout number: 22

1. O=C(NCCCc1ccccc1)n1cnc2c(N3CC(C(F)(F)F)C3)cccc21
2. CN1CC2(CCN(c3cccc4c3ncn4C(=O)NCCC#Cc3ccccc3)CC2)C1
3. O=C(NCCCc1ccccc1)n1cnc2c(N3CCC3)cccc21
I would appreciate it if you could sort these 3 compounds by solubility, starting from the smallest number. # respond with the labels, arranged in the requested order
1, 3, 2

a. CC(C)CCNC(=O)n1cnc2c(N3CCN(c4cccc5cncn45)CC3)cccc21
b. O=C(NCCc1ccccc1)n1cnc2ncccc21 [Example 19a]
c. O=C(NCCCc1ccccc1)n1cnc2c(N3CCC(F)(F)CC3)cccc21
d. CN(C)CC1CN(c2cccc3c2ncn3C(=O)NCCOc2ccccc2)C1
Output the entries ranked by solubility from maximum down to minimum. # respond with the labels, arranged in the requested order
d, b, c, a
(d: 38 µg/mL, b: 26.1 µg/mL, c: 1 µg/mL, a: 0.2 µg/mL)

* * *

As shown below, each of these compounds has a reported pIC50 value.
# target system: acid ceramidase (Homo sapiens, UniProt Q13510)
# Construct: Cell lysates overexpressing acid ceramidase were used as the enzyme source; expressed in transfected cells
# Sequence (Q13510 22-395): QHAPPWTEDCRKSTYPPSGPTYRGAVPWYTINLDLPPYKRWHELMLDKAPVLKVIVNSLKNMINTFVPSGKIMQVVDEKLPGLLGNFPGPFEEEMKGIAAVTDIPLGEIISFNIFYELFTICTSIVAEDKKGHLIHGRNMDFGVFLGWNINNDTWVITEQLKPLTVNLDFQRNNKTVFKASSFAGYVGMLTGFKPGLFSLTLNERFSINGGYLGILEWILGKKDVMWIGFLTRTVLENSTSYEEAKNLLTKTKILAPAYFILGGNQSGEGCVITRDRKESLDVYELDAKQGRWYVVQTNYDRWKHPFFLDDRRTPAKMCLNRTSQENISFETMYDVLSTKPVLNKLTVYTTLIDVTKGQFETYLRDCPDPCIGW
# assay overview: Acid ceramidase inhibition, biochemical fluorescent assay with cell lysates overexpressing acid ceramidase, substrate Rbm14-12
# assay conditions: substrate Rbm14-12 6.3 μM, pH 4.5, 1 hr preincubation at RT
pIC50: −log10 of the molar value.

Some compounds with known pIC50 results, for comparison:
compound: CC(C)CNC(=O)n1cnc2cc(-c3cncnc3)ccc21 [Example 16a]
target system: acid ceramidase (Homo sapiens, UniProt Q13510)
pIC50: > 6.70
//
compound: CN1CCC(c2ccc3c(c2)ncn3C(=O)NCCc2ccccc2)CC1
target system: acid ceramidase (Homo sapiens, UniProt Q13510)
pIC50: > 6.70

Query: pIC50; subject: CC(C)CCNC(=O)n1cnc2c(N3CCN(c4cccc5cncn45)CC3)cccc21
6.00 to 6.70

Query: pIC50; subject: CN1CC(N2CCN(c3cccc4c3ncn4C(=O)NCCC#Cc3ccccc3)CC2)C1
> 6.70

Query: pIC50; subject: CC(C)CCNC(=O)n1cnc2c(N3CCN4CCCC4C3)cccc21 (stereo not drawn)
6.00 to 6.70

Query: pIC50; subject: COc1ccnc2c1ncn2C(=O)NCCc1ccccc1
6.00 to 6.70

Query: pIC50; subject: CC(C)CCNC(=O)n1cnc2c(N3CCN(C4CC4)CC3)cccc21
6.00 to 6.70

Query: pIC50; subject: CC(C)CCNC(=O)n1cnc2c(N3CCN(CC4CC4)CC3)cccc21
6.00 to 6.70

Query: pIC50; subject: CC(C)CCNC(=O)n1cnc2ccccc21
> 6.70

* * *

# target system: acid ceramidase (Homo sapiens, UniProt Q13510)
# Construct: Cell lysates overexpressing acid ceramidase were used as the enzyme source; expressed in transfected cells
# assay overview: Acid ceramidase inhibition, biochemical fluorescent assay with cell lysates overexpressing acid ceramidase, substrate Rbm14-12
# assay conditions: substrate Rbm14-12 6.3 μM, pH 4.5, 1 hr preincubation at RT
result type: IC50

Some molecules with known IC50 results, for comparison:
molecule: COc1nc2c(C#N)cccc2n1C(=O)NCC1CCC(F)(F)CC1 [Example 139]
IC50: < 200 nM

molecule: CCn1c(=O)n(C(=O)NCCc2ccccc2)c2ncccc21 [Example 127]
IC50: 200 to 1000 nM

molecule: O=C(NCCc1ccccc1)n1cnc2cc(Cl)c(-c3ccccn3)cc21 [Example 7b]
IC50: < 200 nM

Query: IC50; subject: CN1CCN(c2cccc3c2ncn3C(=O)NCC2Oc3ccccc3O2)CC1 [Example 345]
< 200 nM

Query: IC50; subject: O=C(NCCc1ccccc1)n1cnc2ccc(C(F)(F)F)cc21 [Example 26b]
< 200 nM

Query: IC50; subject: CC(C)CCNC(=O)n1cnc2cc(-c3cncnc3)ccc21 [Example 103b]
< 200 nM

Query: IC50; subject: [2H]c1nc2ccccc2n1C(=O)NCCc1ccccc1 [Example 128]
< 200 nM

Query: IC50; subject: COc1cccc2c1ncn2C(=O)NCCC(C)C [Example 98]
< 200 nM

Query: IC50; subject: CN1CCN(CCOc2nc3ccccc3n2C(=O)NCC#Cc2ccccc2)CC1 [Example 348]
< 200 nM

Query: IC50; subject: O=C(NCCCc1ccccc1)n1cnc2ncccc21 [Example 59]
< 200 nM

Query: IC50; subject: CCC(C)NC(=O)n1c(OC)nc2ccc(-c3cncnc3)cc21 (stereo not drawn) [Example 109a]
> 1000 nM

* * *

# assay overview: Compound solubility in water
result type: solubility (µg/mL)

compound: COc1nc2cc(F)c(N3CCOCC3)cc2n1C(=O)NCCc1ccccc1 [Example 334a]
solubility / µg/mL: 3
//
compound: CC(=O)N1CCN(c2cccc3c2ncn3C(=O)NCCCCC(C)C)CC1
solubility / µg/mL: 15
//
compound: CC(C)CCNC(=O)n1cnc2c(N3CCOC(C)(C)C3)cccc21
solubility / µg/mL: 14
//
compound: COc1nc2cc(N3[C@@H]4CC[C@H]3COC4)ccc2n1C(=O)NCCCc1ccccc1 [Example 237a]
solubility / µg/mL: 1
//
compound: COc1nc2cc(N3CCN(C4CN(C)C4)CC3)c(F)cc2n1C(=O)NCCCc1ccccc1 [Example 319a]
solubility / µg/mL: 35

P. CN1CCN(c2cccc3c2ncn3C(=O)NCCCc2ccccc2)CC1
Q. O=C(NCCCOc1ccccc1)n1cnc2ccccc21
I'd appreciate it if you could identify which of P and Q has the greater solubility. Pick one and reply with its label.
P
(P: 12 µg/mL, Q: 3.5 µg/mL)

1. CCCCNC(=O)n1cnc2cc(OC)ccc21 [Example 51a]
2. O=C1CN(c2cccc3c2ncn3C(=O)NCCCc2ccccc2)CCN1C1CC1
I'd appreciate it if you could identify which of 1 and 2 has the greater solubility. Pick one and reply with its label.
1
(1: 7.2 µg/mL, 2: 1 µg/mL)

* * *

# assay overview: Compound solubility in water
result type: solubility (µg/mL)

molecule: CCOc1nc2ccccc2n1C(=O)NCCc1ccccc1
readout number: 8.4

I. O=C(NCCc1ccccc1)n1c(=O)[nH]c2cccnc21
II. CN1CCN(CCOc2nc3ccccc3n2C(=O)NCCC#Cc2ccccc2)CC1
I'd appreciate it if you could identify which of I and II has the greater solubility. Pick one and reply with its label.
II
(II: 28 µg/mL, I: 4 µg/mL)

* * *

# assay overview: Compound solubility in water
result type: solubility (µg/mL)

a. COc1nc2cc(F)c(N3CCOCC3)cc2n1C(=O)NCCCCc1ccccc1
b. CC(C)CCNC(=O)n1cnc2c(N3CCN(C4CC4)C(=O)C3)cccc21
I'd appreciate it if you could identify which of a and b has the greater solubility. Pick one and reply with its label.
b
(b: 20 µg/mL, a: 0.3 µg/mL)

I. C[C@@H]1CN(c2cccc3c2ncn3C(=O)NCCCc2ccccc2)C[C@H](C)O1
II. CN1CCN(C2CN(c3cccc4c3ncn4C(=O)NCC#CC(C)(C)C)C2)CC1
III. CC(C)CNC(=O)n1cnc2ccc(-c3cncnc3)cc21 [Example 16b]
I would appreciate it if you could sort these 3 molecules by solubility, starting from the smallest number. # respond with the labels, arranged in the requested order
I, III, II
(I: 0.5 µg/mL, III: 18.3 µg/mL, II: 27 µg/mL)

P. CN1CCN(c2cccc3c2ncn3C(=O)NCCCc2ccccc2)CC12CC2
Q. CN1CC2(CCN(c3cccc4c3ncn4C(=O)NCCOc3ccccc3)CC2)C1
R. CN1CCN(c2cccc3c2ncn3C(=O)NCCc2ccccc2)CC1
Output the entries ranked by solubility from maximum down to minimum. # respond with the labels, arranged in the requested order
Q, P, R

A. CN1CCN(C2CN(c3cccc4c3ncn4C(=O)NCCC#Cc3ccccc3)C2)CC1
B. CC(C)CCNC(=O)n1cnc2c(N3CC4CC3CN4C)cccc21 (stereo not shown)
C. CC(=O)N1CCN(c2cccc3c2ncn3C(=O)NCCCC(F)(F)F)CC1
Output the entries ranked by solubility from maximum down to minimum. # respond with the labels, arranged in the requested order
B, A, C
(B: 33 µg/mL, A: 23 µg/mL, C: 8 µg/mL)
